- target: P2Y purinoceptor 14 (Mus musculus, UniProt Q9ESG6)
- Sequence (Q9ESG6 whole entry): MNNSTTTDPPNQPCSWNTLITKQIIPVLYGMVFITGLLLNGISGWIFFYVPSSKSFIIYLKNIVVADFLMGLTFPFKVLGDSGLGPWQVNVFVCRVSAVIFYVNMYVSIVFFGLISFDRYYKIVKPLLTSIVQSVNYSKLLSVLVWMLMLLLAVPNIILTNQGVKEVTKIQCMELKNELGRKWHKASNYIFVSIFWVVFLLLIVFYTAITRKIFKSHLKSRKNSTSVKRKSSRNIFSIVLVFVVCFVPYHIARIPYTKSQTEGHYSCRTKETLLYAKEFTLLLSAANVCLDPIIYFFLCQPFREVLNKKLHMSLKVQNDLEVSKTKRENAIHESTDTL
- measurementNotes: Inhibition of mouse P2Y14 receptor
reportedMetric: Ki (nM)
Form entry: value (nM) — number only.

Task item: Which measured Ki value corresponds to O=C(O)c1cc(-c2ccc([C@@H](O)C(F)F)cc2)c2ccc(-c3ccc(C(F)(F)F)cc3)cc2c1 ?
Reply: 4

---

- measurementNotes: Inhibition of chimpanzee P2Y14 receptor
- Set-up: species or system Pan troglodytes
reportedMetric: pIC50
Bear in mind: pIC50 is minus log10 of a mol/L concentration; give just that figure.

Task item: Which pIC50 is listed for Cc1cc(F)cc(C)c1COc1ccc2c(-c3ccsc3)cc(C(=O)O)cc2c1 ?
Reply: 8.40

---

- measurementNotes: Clearance in C57BL/6 mouse at 50 mg/kg, po
- Assay type: ADME, organism-based
- testContext: in vivo
reportedMetric: CL/F (mL/min/kg)
Output spec: scalar in mL/min/kg, unitless text.

Task item: // query CL/F value for entry O=C(O)c1cc(-c2ccc([C@@H](O)C(F)F)cc2)c2ccc(-c3ccc(C(F)(F)F)cc3)cc2c1
Reply: 1.6
